# Test system: 873145-292-R-J1-PDC complex spheroid viability
# measurement.description: Anticancer human tumor 873145-292-R-J1-PDC patient-derived renal clear cell carcinoma cell line growth inhibition [POLQ]
# test.settings: second compound 0.0316 µM; first compound 0.1 µM; stronger effect = lower value
Consider the following compounds; for each one, report its viability, T/C.
Give bare numbers, in %.

Here's what some known entries look like.
* Nc1ccn(C2OC(CO)C(O)C2(F)F)c(=O)n1 (stereo unspecified) + Nc1ccc(C#CCN(C(=O)Cc2ncc(C(F)(F)F)cc2C(F)(F)F)c2ccc(F)cc2)nn1 | 72.4
* CCc1c2c(nc3ccc(O)cc13)-c1cc3c(c(=O)n1C2)COC(=O)[C@]3(O)CC + Cc1cccc(N(C)C(=O)C2C(O)CCN2c2nc(C)cc(C(F)(F)F)c2C#N)c1 | 46.8
* CC1COCCN1c1cc(C2(O)CC3CCC(C2)O3)c2cnn(-c3ccn[nH]3)c2n1 (stereo unspecified) + Nc1ccc(C#CCN(C(=O)Cc2ncc(C(F)(F)F)cc2C(F)(F)F)c2ccc(F)cc2)nn1 | 84
* Nc1ccn(C2OC(CO)C(O)C2(F)F)c(=O)n1 (stereo unspecified) + Cc1cccc(N(C)C(=O)C2C(O)CCN2c2nc(C)cc(C(F)(F)F)c2C#N)c1 | 58.3
* CCc1cc2c(N3CCc4c(cc(Cn5ccnc5)cc4-c4cn(C)nc4C(F)(F)F)C3=O)ccnc2c(OC)n1 + Nc1ccc(C#CCN(C(=O)Cc2ncc(C(F)(F)F)cc2C(F)(F)F)c2ccc(F)cc2)nn1 | 106
* CNCc1ccc(-c2[nH]c3cc(F)cc4c3c2CCNC4=O)cc1 + Nc1ccc(C#CCN(C(=O)Cc2ncc(C(F)(F)F)cc2C(F)(F)F)c2ccc(F)cc2)nn1 | 92.8

Provide each entry's viability, T/C from the list below.
1. COc1cccc2c1C(=O)c1c(O)c3c(c(O)c1C2=O)CC(O)(C(=O)CO)CC3OC1CC(N)C(O)C(C)O1 (stereo unspecified) + Nc1ccc(C#CCN(C(=O)Cc2ncc(C(F)(F)F)cc2C(F)(F)F)c2ccc(F)cc2)nn1
2. O=c1[nH]cc(F)c(=O)[nH]1 + Nc1ccc(C#CCN(C(=O)Cc2ncc(C(F)(F)F)cc2C(F)(F)F)c2ccc(F)cc2)nn1
3. O=C(Nc1ccc(O)c(NS(=O)(=O)c2ccc(F)cc2)c1)c1ccc(-c2ccccc2)cc1 + COC1C(OC(N)=O)C(O)C(Oc2ccc3c(O)c(NC(=O)c4ccc(O)c(CC=C(C)C)c4)c(=O)oc3c2C)OC1(C)C
4. CC1COCCN1c1cc(C2(O)CC3CCC(C2)O3)c2cnn(-c3ccn[nH]3)c2n1 (stereo unspecified) + Cc1cccc(N(C)C(=O)C2C(O)CCN2c2nc(C)cc(C(F)(F)F)c2C#N)c1

A.
86.6
103
99.8
67.5

Q. # viability, T/C lookup, item O=C(c1cc(Cc2n[nH]c(=O)c3ccccc23)ccc1F)N1CCN(C(=O)C2CC2)CC1 + Nc1ccc(C#CCN(C(=O)Cc2ncc(C(F)(F)F)cc2C(F)(F)F)c2ccc(F)cc2)nn1
A. 110

* * *

Could you please report measured IC50 for the items listed next?
# System: 873145-292-R-J1-PDC complex spheroid viability
# measurement.description: Anticancer human tumor 873145-292-R-J1-PDC cell line growth inhibition [POLQ];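 note: spheroids exposed to compounds for 7 days before viability readout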
# test.settings: curve of first compound; second compound 10 µM

Below is a list of molecules. For each, state its recorded IC50.
1. COc1cccc(OCCCN)c1-c1cc(Nc2cnc(C#N)cn2)n[nH]1 + Cc1cccc(N(C)C(=O)C2C(O)CCN2c2nc(C)cc(C(F)(F)F)c2C#N)c1
2. CC(C)n1c(=O)n(C)c2cnc3cc(F)c(-c4ccc(OCCCN5CCCCC5)nc4)cc3c21 + Nc1ccc(C#CCN(C(=O)Cc2ncc(C(F)(F)F)cc2C(F)(F)F)c2ccc(F)cc2)nn1
3. C=CC(=O)N1CCN(c2nc(=O)n(-c3c(C)ccnc3C(C)C)c3nc(-c4c(O)cccc4F)c(F)cc23)C(C)C1 (stereo not drawn) + Nc1ccc(C#CCN(C(=O)Cc2ncc(C(F)(F)F)cc2C(F)(F)F)c2ccc(F)cc2)nn1

A.
1: > 1 µM; 2: > 10 µM; 3: > 10 µM
